Would you kindly list Emax for each of these compounds?
# subject.of.test: Mu-type opioid receptor (Homo sapiens, UniProt P35372)
# Sequence (P35372 whole entry): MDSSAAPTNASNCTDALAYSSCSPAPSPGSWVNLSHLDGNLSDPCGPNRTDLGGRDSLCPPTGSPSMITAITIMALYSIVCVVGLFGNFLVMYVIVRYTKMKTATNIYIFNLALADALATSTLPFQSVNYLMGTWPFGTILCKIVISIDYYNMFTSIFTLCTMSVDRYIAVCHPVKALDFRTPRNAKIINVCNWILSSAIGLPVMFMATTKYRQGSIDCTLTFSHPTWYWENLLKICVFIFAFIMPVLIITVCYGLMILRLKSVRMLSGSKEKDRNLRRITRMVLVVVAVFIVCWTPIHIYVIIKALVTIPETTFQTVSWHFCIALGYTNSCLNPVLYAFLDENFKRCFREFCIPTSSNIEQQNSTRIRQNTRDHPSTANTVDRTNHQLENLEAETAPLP
# experiment.notes: Agonist activity at MOR (unknown origin) expressed in HEK cells assessed as reduction in cAMP accumulation by split luciferase assay relative to DAMGO
# Assay type: functional, cell-based
*1 amine or outer side, *2 acyl side, *3 side chain or, on linkers, in order; H or OH if unused. Where a SMILES comes first, the peptide text is derived from it. Bridges are numbered along the chain shown (N, C = ends). Roman numbers before positions name the chains, in order. [ ]: non-standard residue; d: D form. Piperazine(1,4-diyl) = C1CN([*:2])CCN1[*:1]; Dmt = Cc1cc(O)cc(C)c1C[C@H](N)C(=O)O
The reply should be a number in %, with the unit left off.

What does the data say about its Emax? Entry: Cc1cc(O)cc(C)c1C[C@H](N)C(=O)N[C@@H]1CSSC[C@@H](NC(=O)[C@@H](N)Cc2c(C)cc(O)cc2C)C(=O)NCC(=O)N[C@@H](Cc2ccccc2)C(=O)N2CCN(CC2)C(=O)[C@H](Cc2ccccc2)NC(=O)CNC1=O (I: H-[Dmt][dC]GF / II: H-[Dmt][dC]GF; disulfide I:2-II:2; linker I:C-II:C via Piperazine(1,4-diyl))
58

// returns reported Emax for input CC1(C)SSC(C)(C)[C@H](NC(=O)[C@@H](N)Cc2ccc(O)cc2)C(=O)NCC(=O)N[C@@H](Cc2ccccc2)C(=O)N2CCN(CC2)C(=O)[C@H](Cc2ccccc2)NC(=O)CNC(=O)[C@H]1NC(=O)[C@@H](N)Cc1ccc(O)cc1 (HELM PEPTIDE1{Y.[Pen].G.F}|PEPTIDE2{Y.[Pen].G.F}|CHEM1{[C1CN([*:2])CCN1[*:1]]}$PEPTIDE1,PEPTIDE2,2:R3-2:R3|PEPTIDE1,CHEM1,4:R2-1:R1|PEPTIDE2,CHEM1,4:R2-1:R2$$$V2.0)
86

Cited source: ChEMBL document CHEMBL4118237
